TARGET: Kelch domain of Keap1
Sequence (chain, as listed by the source): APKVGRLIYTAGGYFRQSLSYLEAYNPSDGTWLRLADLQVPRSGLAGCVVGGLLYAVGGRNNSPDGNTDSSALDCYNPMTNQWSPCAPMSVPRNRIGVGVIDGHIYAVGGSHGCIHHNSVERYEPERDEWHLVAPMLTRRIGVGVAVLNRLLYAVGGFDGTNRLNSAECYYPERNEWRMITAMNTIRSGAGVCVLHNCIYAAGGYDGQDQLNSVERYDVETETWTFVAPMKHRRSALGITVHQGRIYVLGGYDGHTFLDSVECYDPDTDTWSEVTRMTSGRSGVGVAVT
TEST_DETAILS: SPR
Ends that are not written are not given here.
REPORTED_PROPERTY: Kd (nM)
Kindly provide the numeric value in nM only, without the unit symbol.

Request: Given the entry GCPPCASGCSPETGEFCWREDDCPPC (disulfide (positions not given here); not fully specified) [drp3-a] , report its measured Kd.
Result: 277
